Where do the numbers come from? From patent US20100286038A1.

Tested on: various human tumor cell lines
Conditions: read-out: Mean In-Cell IC50; Leukemia; 24 hours exposure
pIC50: −log10 of the molar value.
PROPERTY: pIC50

| COMPOUND STRUCTURE | RECORDED MEASUREMENT |
| --- | --- |
| CCc1cnn2c(NCc3ccc[n+]([O-])c3)cc(N3CCCC[C@H]3CCO)nc12 | 8.22 |

====

System: various human tumor cell lines
Conditions: read-out: Mean In-Cell IC50; Breast; 24 hours exposure

| COMPOUND | IC50 / nM |
| --- | --- |
| CCc1cnn2c(NCc3ccc[n+]([O-])c3)cc(N3CCCC[C@H]3CCO)nc12 [Formula II] | 8 |
